System: RPMI-8226 leukemia
Assay info: NCI tumour cell line growth inhibition, 48 h; in the data active means GI50 below about 0.43 µM; inactive means the rest
Outcomes: 1 = active, -1 = inactive

>  <Molecule>
Cc1nn(-c2ccc(F)cc2)c2ncnc(Nc3ccc(NC(=O)Nc4ccc(Cl)c(C(F)(F)F)c4)cc3)c12

>  <Label class>
-1

$$$$
>  <Molecule>
CN1CCN(CC#Cc2cccc(C(=O)c3cnn(-c4ccc(F)cc4)c3N)c2)CC1

>  <Label class>
-1

$$$$
>  <Molecule>
COc1ccc2cc1Oc1ccc(cc1)C[C@H]1c3cc(c(OC)cc3CCN1C)Oc1c(OC)c(OC)cc3c1[C@H](C2)N(C)CC3

>  <Label class>
-1

$$$$
>  <Molecule>
C[C@@H]1CC[C@H]2C(COCC3=C(C(F)(F)F)O[C@@H]4O[C@@]5(C)CC[C@H]6[C@H](C)CC[C@@H]3[C@@]46OO5)=C(C(F)(F)F)O[C@@H]3O[C@@]4(C)CC[C@@H]1[C@]32OO4

>  <Label class>
1

$$$$
>  <Molecule>
CCCCCCCCCCCCC(=O)OC(c1cnco1)c1nc(C(O)CC(O)C(O)C(C)O)co1 (configuration not stated)

>  <Label class>
-1

$$$$
>  <Molecule>
COc1ccc(C(=S)N2CCN(c3cccc(Cl)c3)CC2)cc1

>  <Label class>
-1

$$$$
>  <Molecule>
O=C(c1ccc2ccccc2c1)c1c(C(F)(F)F)n([O-])c2cc(Cl)c(Cl)cc2[n+]1=O

>  <Label class>
-1

$$$$
>  <Molecule>
O=C(Nc1cccc(-n2ccc3c(NC(=O)c4ccccc4)nccc32)c1)c1cccc(C(F)(F)F)c1

>  <Label class>
1

$$$$
>  <Molecule>
O=C(c1cccs1)c1c(C(F)(F)F)n([O-])c2ccccc2[n+]1=O

>  <Label class>
-1

$$$$
>  <Molecule>
C#Cc1ccc(-n2c(/C=C/c3ccc(Cl)c(F)c3)nc3ncccc3c2=O)cc1

>  <Label class>
1

$$$$
>  <Molecule>
O=[Se]([O-])c1ccccc1.O=[Se]([O-])c1ccccc1.[OH3+].[OH3+].[Pt+2]

>  <Label class>
-1

$$$$
>  <Molecule>
CC(=O)c1ccc(Nc2cc(-c3ccccc3)nc3c(O)cccc23)cc1

>  <Label class>
-1

$$$$
>  <Molecule>
O=C(CCN1CCN(c2cnc3ccccc3n2)CC1)c1csc2ccccc12

>  <Label class>
-1

$$$$
>  <Molecule>
O=C(Nc1nc2ccccc2s1)OCC(F)(F)F

>  <Label class>
-1

$$$$
>  <Molecule>
O=C(/C=C/c1ccc(Cl)cc1)c1ccc(Cl)cc1Cl

>  <Label class>
-1

$$$$
>  <Molecule>
CC(C)(C)OC(=O)n1cc(CNC(=S)Nc2ccccc2)c2ccccc21

>  <Label class>
-1

$$$$
>  <Molecule>
C[C@@H]1CC[C@@H]2[C@@H]1[C@H](OC(=O)/C=C/c1ccccc1)[C@]1(c3ccccc3)C[C@@H](OC(=O)CO)[C@@]2(C)O1

>  <Label class>
-1

$$$$

====

Test system: RPMI-8226 leukemia
Assay info: NCI tumour cell line growth inhibition, 48 h

>  <Compound>
COC(=O)C(C#N)=C1c2ccccc2Oc2ccccc21

>  <Target under test>
RPMI-8226 leukemia

>  <TGI>
49.3 µM

$$$$
>  <Compound>
c1ccc(C[P+]2(c3ccccc3)c3ccccc3-c3ccccc32)cc1

>  <Target under test>
RPMI-8226 leukemia

>  <TGI>
> 100 µM

$$$$
>  <Compound>
c1ccc([P+](CCNCCNCC[P+](c2ccccc2)(c2ccccc2)c2ccccc2)(c2ccccc2)c2ccccc2)cc1

>  <Target under test>
RPMI-8226 leukemia

>  <TGI>
> 100 µM

$$$$
>  <Compound>
CCOP(=O)(OCC)[C@H](O)c1ccsc1

>  <Target under test>
RPMI-8226 leukemia

>  <TGI>
> 100 µM

$$$$
>  <Compound>
Cc1ccc(-c2cc(N)n(-c3nc4c([nH]3)c(=O)n(C)c(=O)n4C)n2)cc1

>  <Target under test>
RPMI-8226 leukemia

>  <TGI>
> 100 µM

$$$$
>  <Compound>
O=C(CCN1CCN(c2cnc3ccccc3n2)CC1)c1csc2ccccc12

>  <Target under test>
RPMI-8226 leukemia

>  <TGI>
> 100 µM

$$$$
>  <Compound>
CCOC(=O)c1c(NC(=O)c2ccccc2)sc2c1CCCC2

>  <Target under test>
RPMI-8226 leukemia

>  <TGI>
> 100 µM

$$$$
>  <Compound>
O=C1CC(=O)N(c2ccccc2)N1/C(=C/c1ccccc1)c1ccccc1

>  <Target under test>
RPMI-8226 leukemia

>  <TGI>
34.5 µM

$$$$
>  <Compound>
CCCCc1c(O)nc(Nc2nc3ccccc3[nH]2)[nH]c1=O

>  <Target under test>
RPMI-8226 leukemia

>  <TGI>
> 100 µM

$$$$
>  <Compound>
Nc1nc(Cl)cc(NCC2(CO)CC(CCc3ccccc3)C2)n1 (configuration not stated)

>  <Target under test>
RPMI-8226 leukemia

>  <TGI>
> 100 µM

$$$$
>  <Compound>
O=C(Cc1nc2ccc(C(=O)c3ccccc3)cc2[nH]c1=O)C(=O)Nc1ccc(Br)cc1

>  <Target under test>
RPMI-8226 leukemia

>  <TGI>
> 100 µM

$$$$
>  <Compound>
O=C1CC(C(O)CO)CC(=O)N1 (configuration not stated)

>  <Target under test>
RPMI-8226 leukemia

>  <TGI>
> 100 µM

$$$$
>  <Compound>
CC1(C)N=C(N)N=C(N)N1c1ccc(CCCCc2ccc(S(=O)(=O)F)cc2)cc1

>  <Target under test>
RPMI-8226 leukemia

>  <TGI>
10.8 µM

$$$$
>  <Compound>
CC(C)(C)OC(=O)NC(C)(C)C(=O)NCCC(=O)O

>  <Target under test>
RPMI-8226 leukemia

>  <TGI>
> 100 µM

$$$$
>  <Compound>
COc1cc2oc(-c3ccc(O)cc3)c(OC3OC(C)C(O)C(O)C3O)c(=O)c2c(O)c1OC (configuration not stated)

>  <Target under test>
RPMI-8226 leukemia

>  <TGI>
> 100 µM

$$$$
>  <Compound>
O=[N+]([O-])[C@@H]1C2C=CC(C2)[C@H]1Cl (some centres not stated)

>  <Target under test>
RPMI-8226 leukemia

>  <TGI>
> 100 µM

$$$$
>  <Compound>
Oc1ccccc1/C=N/Nc1ccc2ccccc2n1

>  <Target under test>
RPMI-8226 leukemia

>  <TGI>
> 100 µM

$$$$
>  <Compound>
CC1(C)CC2(C)CC1CC2O (configuration not stated)

>  <Target under test>
RPMI-8226 leukemia

>  <TGI>
> 100 µM

$$$$
>  <Compound>
CCN1CCN(c2nc(NCCCNc3ccnc4cc(Cl)ccc34)c3ccccc3n2)CC1

>  <Target under test>
RPMI-8226 leukemia

>  <TGI>
6.04 µM

$$$$
>  <Compound>
C/C(=N\NC(=S)NC(C)C)c1nc2ncccc2[nH]1

>  <Target under test>
RPMI-8226 leukemia

>  <TGI>
> 100 µM

$$$$
>  <Compound>
N#CCCN(c1ccc(C=Nc2cccc([N+](=O)[O-])c2)cc1)S(=O)(=O)c1ccccc1

>  <Target under test>
RPMI-8226 leukemia

>  <TGI>
> 100 µM

$$$$
>  <Compound>
COC1O[C@H]2CCN(C(=O)OCc3ccccc3)[C@H]2[C@H]1OCc1ccccc1 (some centres not stated)

>  <Target under test>
RPMI-8226 leukemia

>  <TGI>
> 100 µM

$$$$
